pest or weed control at 125 g/ha values by entry
Tested on: Avena fatua (AVEFA)
Assay: Test Example 1 post-emergence herbicidal activity
Type: in vivo
Details: 360 h, rate 125 g/ha, evaluated 15 days later, read-out: Post-emergence activity AVEFA (100=total damage to plant; 0=no damage to plant)
parameter: pest or weed control at 125 g/ha (%)

In [3]: df
Out[3]:
                                   compound  unit_name  observed_value
0  CCc1cc(CC)c(C2=C(O)[C@H]3[C@@H](C2=O)[C@@H]2CC[C@H]3O2)c(CC)c1          %              70
1  CCc1cc(C)cc(CC)c1C1=C(O)[C@@H]2[C@@H]3O[C@@H](C[C@H]3c3ccccc3F)[C@@H]2C1=O (racemic)          %              70
2  Cc1cc(C)c(C2=C(O)[C@H]3[C@@H](C2=O)[C@@H]2C=C[C@@]3(CO)O2)c(C)c1 (racemic)          %              20

* * *

Test system: Avena fatua (AVEFA)
Assay: Test Example 1 post-emergence herbicidal activity
Format: in vivo
Conditions: 360 h, rate 125 g/ha, evaluated 15 days later, read-out: Post-emergence activity AVEFA (100=total damage to plant; 0=no damage to plant)
parameter: pest or weed control at 125 g/ha

>>> print(df.to_string())
                                   compound  observed_value
0  CCc1cc(C)cc(CC)c1C1=C(O)[C@H]2[C@@H](C1=O)[C@@H]1CC[C@@]2(COCC#N)O1 [Example T27]             90%
1  CCc1cc(C)cc(CC)c1C1=C(O)[C@@H]2[C@@H]3O[C@@H](C[C@H]3c3cc([N+](=O)[O-])ccc3C)[C@@H]2C1=O (racemic) [Example T184]              0%
2  CSc1ccc([C@@H]2C[C@@H]3O[C@H]2[C@H]2C(O)=C(c4c(C)cc(C)cc4C)C(=O)[C@H]23)cc1 [Example T66]             80%

* * *

Test system: Avena fatua (AVEFA)
Assay: Test Example 1 post-emergence herbicidal activity
Type: in vivo
Conditions: 360 h, rate 125 g/ha, evaluated 15 days later, read-out: Post-emergence activity AVEFA (100=total damage to plant; 0=no damage to plant)
Simple rule here: pest or weed control at 125 g/ha less than 80% is t, otherwise f.

>>> df
                                    molecule  group_label
 0  CCc1cc(C)cc(CC)c1C1=C(O)[C@@H]2[C@@H]3O[C@@H](C[C@H]3c3ccc(Cl)cc3C)[C@@H]2C1=O (racemic) [Example T165]            t
 1  CCc1nc2ccccc2nc1[C@@H]1C[C@@H]2O[C@H]1[C@H]1C(O)=C(c3c(C)cc(C)cc3C)C(=O)[C@H]12 [Example T194]            t
 2  CCC(C)C(=O)OC1=C(c2c(C)cc(C)cc2C)C(=O)[C@@H]2[C@H]1[C@H]1CC[C@@H]2O1 (stereo partly shown) [Example P9]            f
 3  CCc1cc(C)cc(CC)c1C1=C(O)[C@@H]2[C@@H]3O[C@@H](C[C@H]3c3cc(OC)c(OC)c(OC)c3)[C@@H]2C1=O (racemic) [Example T181]            f
 4  Cc1cc(C)c(C2=C(O)[C@@H]3[C@@H]4O[C@@H](C[C@H]4c4ccc(C(F)(F)F)cc4)[C@@H]3C2=O)c(C)c1 [Example T92]            f
 5  CCCCCCC(=O)OC1=C(c2c(CC)cc(C)cc2CC)C(=O)[C@@H]2[C@H]1[C@H]1CC[C@@H]2O1 (racemic) [Example P20]            f
 6  CCc1cc(C)cc(CC)c1C1=C(O)[C@H]2[C@@H](C1=O)[C@@H]1CC[C@@]2(COC)O1 [Example T17]            f
 7  CCc1cc(C)cc(CC)c1C1=C(O)[C@@H]2[C@@H]3O[C@@H](C[C@H]3c3cccc(C#N)c3)[C@@H]2C1=O [Example T182]            f
 8  CCc1cc(C)cc(CC)c1C1=C(O)[C@H]2[C@@H](C1=O)[C@@H]1C=C(C#C[Si](C)(C)C)[C@H]2O1 (racemic) [Example T11]            t
 9  Cc1cc(C)c(C2=C(O)[C@H]3[C@@H](C2=O)[C@]2(C)CC(C)[C@@]3(C)O2)c(C)c1 (stereo partly shown) [Example T125]            t
10  Cc1cc(C)c(C2=C(O)[C@@H]3[C@@H]4O[C@@H](C[C@H]4c4nc(C)cnc4C)[C@@H]3C2=O)c(C)c1 [Example T193]            t
11  Cc1cc(C)c(C2=C(OC(=O)C(C)C)[C@H]3[C@@H](C2=O)[C@@H]2CC[C@H]3O2)c(C)c1 [Example P10]            f

* * *

Test system: Lolium perenne (LOLPE)
Assay: Test Example 1 pre-emergence herbicidal activity
Assay type: in vivo
Conditions: Lolium perenne, 480 h, rate 250 g/ha, evaluated 20 days later, read-out: Pre-emergence activity LOLPE (100=total damage to plant; 0=no damage to plant)
parameter: pest or weed control at 250 g/ha

>>> print(df.to_string())
                                   compound  observed_value
0  CCOC[C@]12CC[C@H](O1)[C@@H]1C(=O)C(c3c(CC)cc(C)cc3CC)=C(O)[C@@H]12            100%
1  Cc1cc(C)c(C2=C(O)[C@H]3[C@@H](C2=O)[C@@H]2CC[C@H]3O2)c(C)c1            100%
2  Cc1cc(C)c(C2=C(O)[C@H]3[C@@H](C2=O)[C@@H]2C=C(CO)[C@@]3(C)O2)c(C)c1              0%
3  CCc1cc(C)cc(CC)c1C1=C(O)[C@H]2[C@@H](C1=O)[C@]1(C)CC[C@@]2(C)O1            100%
4  CCc1ccc(Br)cc1C1=C(O)[C@H]2[C@@H](C1=O)[C@@H]1CC[C@H]2O1             70%
5  CCc1cc(C)cc(CC)c1C1=C(O)C2[C@@H](C1=O)[C@@H]1C[C@@H](c3ccc(OC)cc3)[C@H]2O1 (stereo partly shown)             70%
6  CCc1cc(C)cc(CC)c1C1=C(O)[C@H]2[C@@H](C1=O)[C@@H]1C=C(C#C[Si](C)(C)C)[C@H]2O1 (racemic)             60%

* * *

Tested on: Echinochloa crus-galli (ECHCG)
Test: Test Example 1 pre-emergence herbicidal activity
Format: in vivo
Conditions: Echinochloa crus-galli, 480 h, rate 250 g/ha, evaluated 20 days later, read-out: Pre-emergence activity ECHCG (100=total damage to plant; 0=no damage to plant)
Simple rule here: pest or weed control at 250 g/ha less than 50% is True, otherwise False.

In [3]: df
Out[3]:
                                    compound                             tgt  group_label
 0  C#CC1=C[C@@H]2O[C@H]1[C@H]1C(O)=C(c3c(CC)cc(C)cc3CC)C(=O)[C@H]12  Echinochloa crus-galli (ECHCG)         True
 1  Cc1cc(C)c(C2=C(O)[C@@H]3[C@@H]4O[C@@H](C[C@H]4c4ccc(C(F)(F)F)nc4)[C@@H]3C2=O)c(C)c1 (racemic)  Echinochloa crus-galli (ECHCG)        False
 2  Cc1cc(C)c(C2=C(O)[C@H]3[C@@H](C2=O)[C@@H]2C=C[C@@]3(CO)O2)c(C)c1 (racemic)  Echinochloa crus-galli (ECHCG)         True
 3  C#CCOC(=O)OC1=C(c2c(C)cc(C)cc2C)C(=O)[C@@H]2[C@H]1[C@H]1CC[C@@H]2O1 (racemic)  Echinochloa crus-galli (ECHCG)        False
 4  Cc1cc(C)c(C2=C(O)C3C(C2=O)[C@@H]2CC(CO)[C@@]3(C)O2)c(C)c1 (stereo partly shown)  Echinochloa crus-galli (ECHCG)        False
 5  CCc1cc(C)cc(CC)c1C1=C(O)[C@@H]2[C@@H]3O[C@@H](C[C@H]3c3ccc(F)c(F)c3)[C@@H]2C1=O (racemic)  Echinochloa crus-galli (ECHCG)        False
 6  Cc1cc(C)c(C2=C(O)[C@@H]3[C@@H]4O[C@@H](C[C@H]4c4cnccn4)[C@@H]3C2=O)c(C)c1  Echinochloa crus-galli (ECHCG)         True
 7  CCc1ccc(Br)cc1C1=C(O)[C@H]2[C@@H](C1=O)[C@@H]1CC[C@H]2O1  Echinochloa crus-galli (ECHCG)         True
 8  CCc1cc(C)cc(CC)c1C1=C(O)[C@@H]2[C@@H]3O[C@@H](C[C@H]3c3ccc(Cl)cc3)[C@@H]2C1=O  Echinochloa crus-galli (ECHCG)        False
 9  COC[C@]12CC[C@H](O1)[C@@H]1C(=O)C(c3c(C)cc(C)cc3C)=C(OC(=O)C3CC3)[C@@H]12 (single isomer, unassigned)  Echinochloa crus-galli (ECHCG)        False
10  Cc1cc(C)c(C2=C(O)[C@@H]3[C@@H]4O[C@@H](C[C@H]4c4ccc(C#N)cc4)[C@@H]3C2=O)c(C)c1  Echinochloa crus-galli (ECHCG)         True
